Measured normalized growth, listed per entry.
assay: chemical genetic growth profiling, strain panel (AID 1159580);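 also: tested at 20 µM; growth read once vehicle control cultures reached saturation at 30 °C; 1 = growth at the plate median or of vehicle wells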; conditions: S. cerevisiae deletion strains, growth OD, locus YIR030C, strain dcg1, active compounds read low
The whole screen tested about 5,500 compounds, of which about 2,000 (36%) were called active. Another 18% or so got no clear call; they are omitted. Some of the results follow.
Lab note: record just the number, no unit beside it.

Compound	normalized growth
CN(C)CCOC(C)(c1ccccc1)c1ccccn1 (stereo not drawn)	0.96
CC(C)NCC(O)c1ccc2ccccc2c1 (stereo not drawn)	0.998
C=C[C@](C)(O)CCC=C(C)C	0.998

[Q] Tell me normalized growth reported for "CCN(CC)CCOc1ccc(/C(=C(\Cl)c2ccccc2)c2ccccc2)cc1"
[A] 0.0601

[Q] Supply reported normalized growth belonging to this compound: "CS(=O)(=O)CCCCN=C=S"
[A] 0.77

[Q] Report normalized growth, nothing else, for this compound: CSCCC(NC=O)C(=O)NC(C)C(=O)O (stereo not drawn)
[A] 0.983

[Q] Please indicate normalized growth recorded for CCC(Cc1c(I)cc(I)c(N)c1I)C(=O)O (stereo not drawn)
[A] 0.996

[Q] Give the value of normalized growth reported for the following: "Cc1ccc(/C(=C\CN2CCCC2)c2ccccn2)cc1"
[A] 0.995

[Q] Provide only the value of recorded normalized growth for C=CC(C)(O)CC/C=C(\C)CCC=C(C)C (stereo not drawn)
[A] 1.01

[Q] Dear colleague, please send me the reported normalized growth for "CCN(CC)CCNC(=O)c1cc(S(C)(=O)=O)ccc1OC" when you can.
[A] 1.01

[Q] In one line, give reported normalized growth of the entry O=C1O[C@H](C(O)CO)C(O)=C1O (stereo partly drawn) .
[A] 0.978

[Q] State its normalized growth: CN1C(CC(=O)c2ccccc2)CCCC1CC(O)c1ccccc1 (stereo not drawn)
[A] 0.993

[Q] Give reported normalized growth value for CC(C)(C)NCC(O)c1ccccc1Cl (stereo not drawn)
[A] 0.983

* * *

test: chemical genetic growth profiling, strain panel (AID 1159580); conditions: S. cerevisiae deletion strains, growth OD, locus YGL240W, strain doc1, active compounds read low
In all, about 5,500 compounds went through this assay and about 2,000 (36%) were called active. Not shown: some 18% with an inconclusive outcome. The list shows a part of the results.
Property label: normalized growth
API doc: respond with a numeric literal and nothing else, no unit.

[Q] Identify the reported normalized growth for the following entry. "COc1ccc(C(Cl)=C(c2ccc(OC)cc2)c2ccc(OC)cc2)cc1"
[A] 1.05

[Q] Input "Nc1ccc(S(=O)(=O)Nc2ccccn2)cc1" , output reported normalized growth.
[A] 1.02

[Q] Retrieve normalized growth measured for CN(C)CCOC(C)(c1ccccc1)c1ccccn1 (stereo unspecified) and print it.
[A] 1

[Q] Please indicate normalized growth recorded for "O=C(O)CF"
[A] 1

[Q] Return normalized growth (reported value) for this molecule: "O=C(O)c1ccccc1Nc1cccc(C(F)(F)F)c1"
[A] 0.853

[Q] Using known records, supply normalized growth for C1CCN2CC3CC(CN4CCCCC34)C2C1 (stereo unspecified)
[A] 1.03

[Q] Write down normalized growth measured for item O=C1CCCC2C3CC(CN12)[C@@H]1CCCCN1C3 (stereo partly specified)
[A] 1

* * *

// reported normalized growth for each item listed
test: chemical genetic growth profiling, strain panel (AID 1159580); conditions: S. cerevisiae deletion strains, growth OD, locus YDL101C, strain DUN1, active compounds read low
Out of some 5,500 compounds screened, about 2,000 (36%) were called active. Roughly 18% stayed inconclusive and do not appear here. Some of the results follow.
Give the value as a plain number.

Solved entries (count: 4):
Compound	normalized growth
Nc1ccc(S(=O)(=O)Nc2ccccn2)cc1	1
Cc1c(C)c(C)c(CSC(N)=Nc2ccc(F)cc2)c(C)c1C	1.01
O=c1[nH]c(=O)n(C2C[C@@H](O)[C@@H](CO)O2)cc1F (stereo partly specified)	1.03
Nc1ncnc2c1ncn2C1O[C@H](COP(=O)(O)O)[C@@H](O)[C@H]1O (stereo partly specified)	1.01

[Q] Answer with the recorded normalized growth of "CCCCC1(COC(=O)CCC(=O)O)C(=O)N(c2ccccc2)N(c2ccccc2)C1=O" only.
[A] 1

[Q] Dear colleague, please send me the reported normalized growth for "CNC[C@@H](O)c1ccc(O)c(O)c1" when you can.
[A] 0.986

[Q] Provide normalized growth value for the following compound: "COC(=O)c1ccc(-c2ccc(Cl)cc2)s1"
[A] 0.906

[Q] Please supply the value of reported normalized growth for the item "NC(=Nc1ccc(F)cc1)SCc1c(Cl)cccc1Cl"
[A] 0.996

[Q] Determine its reported normalized growth: "CC(C)c1ccc(NC(=S)NC(=O)c2ccc(C(F)(F)F)cc2)cc1"
[A] 1.01

[Q] Provide one value: measured normalized growth of NC(=NCCC[C@H](N)C(=O)O)NC(CCC(=O)O)C(=O)O (stereo partly specified)
[A] 1.01

[Q] Consider the compound "CCSc1sc(C(=O)OC)c(-c2ccc(Cl)cc2)c1C#N" and give its recorded normalized growth.
[A] 1.02

* * *

assay: chemical genetic growth profiling, strain panel (AID 1159580); conditions: S. cerevisiae deletion strains, growth OD, locus YOR136W, strain idh2, active compounds read low
Screen size: about 5,500 compounds; about 2,000 (36%) were called active. About 18% were inconclusive and are not listed. The list shows a part of the results.
As shown below, each of these compounds has a reported normalized growth value.
// response body must contain only the number

Below: 3 compounds and their reported normalized growth.
Compound	Assay value
CC(=O)O[C@@H]1CC2C(C)(C)C(=O)CC[C@]2(C)C2CC[C@]3(C)C(=CC(=O)O[C@H]3c3ccoc3)[C@@]21C (stereo not given in full)	1
COC(=O)[C@]1(C)CC[C@]2(C)CC[C@]3(C)C4=CCc5c(cc(O)c(O)c5C)[C@]4(C)CC[C@@]3(C)C2C1 (stereo not given in full)	0.966
CN(C)CCOC(C)(c1ccccc1)c1ccccn1 (stereo not given)	0.983

[Q] Please report the measured normalized growth for C[C@H]1[C@H]2CCC3C4CC=C5C[C@@H](N(C)C)CC[C@]5(C)C4CC[C@@]32CN1C (stereo not given in full)
[A] 0.991

[Q] Provide normalized growth value for the following compound: "COc1ccc(C(Cl)=C(c2ccc(OC)cc2)c2ccc(OC)cc2)cc1"
[A] 1.01

[Q] Identify measured normalized growth corresponding to "CC(=O)Nc1cc([As](=O)(O)O)ccc1O"
[A] 0.974

[Q] Identify measured normalized growth associated with "CCOP(=S)(OCC)SCn1c(=O)oc2cc(Cl)ccc21"
[A] 0.999

[Q] Please indicate normalized growth recorded for "Nc1ccc(S(=O)(=O)Nc2ccccn2)cc1"
[A] 0.992

[Q] Return normalized growth for the following compound: "Nc1nc2ncc(C(=O)O)nc2c(=O)[nH]1"
[A] 1.04

[Q] Indicate its recorded normalized growth; the compound in question is CC(=O)OCC1(C)CCC2(C)CCC3(C)C4=CCc5c(cc(OC(C)=O)c(OC(C)=O)c5C)C4(C)CCC3(C)C2C1 (stereo not given)
[A] 0.998

* * *

experiment: chemical genetic growth profiling, strain panel (AID 1159580);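 also: tested at 20 µM; growth read once vehicle control cultures reached saturation at 30 °C; 1 = growth at the plate median or of vehicle wells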; conditions: S. cerevisiae deletion strains, growth OD, locus YCL061C, strain MRC1
The campaign covered roughly 5,500 compounds. About 2,000 (36%) were called active. Roughly 18% stayed inconclusive and do not appear here. No stated cut-off is given here; in the data, active means normalized growth mostly below about 0.91 (no sharp cut-off); inconclusive means no clear call, values can overlap the other calls; inactive means mostly above about 0.92. The list shows a part of the results.
// allowed return values: active, inactive

Compound	Assigned category
O=C(NC(=O)c1c(F)cccc1F)Nc1ccc(Cl)cc1	inactive

[Q] Outcome logged for O=C1CCCC2C3CC(CN12)[C@@H]1CCCCN1C3 (stereo partly specified) in this assay:
[A] inactive

* * *

assay: chemical genetic growth profiling, strain panel (AID 1159580);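 also: tested at 20 µM; growth read once vehicle control cultures reached saturation at 30 °C; 1 = growth at the plate median or of vehicle wells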; conditions: S. cerevisiae deletion strains, growth OD, locus YLR320W, strain mms22, active compounds read low
Out of some 5,500 compounds screened, about 2,000 (36%) were called active. Roughly 18% stayed inconclusive and do not appear here. The list shows a part of the results.
In plain terms, low normalized growth, meaning strictly below 1, gives label 1, and everything else gives label 0.

Entry smiles	Assigned category
CC(=O)Nc1ccc(S(=O)(=O)c2ccc(NC(C)=O)cc2)cc1	label 0
Oc1c(I)cc(I)c2cccnc12	label 1
CC(=O)Oc1ccc(Cl)c2cccnc12	label 1

[Q] Is normalized growth strictly under 1 for the entry "NCCCC[C@H](N[C@@H](CCc1ccccc1)C(=O)O)C(=O)N1CCC[C@H]1C(=O)O" ?
[A] label 0

[Q] normalized growth strictly < 1 for this compound? "Nc1ccc(S(=O)(=O)Nc2ccc(Cl)nn2)cc1"
[A] label 1

[Q] Is 1 strictly greater than the compound's reported normalized growth? compound: "O=C(O)CF"
[A] label 0

* * *

test: chemical genetic growth profiling, strain panel (AID 1159580);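 also: tested at 20 µM; growth read once vehicle control cultures reached saturation at 30 °C; 1 = growth at the plate median or of vehicle wells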; settings: S. cerevisiae deletion strains, growth OD, locus YPL241C, strain CIN2, active compounds read low
Screen size: about 5,500 compounds; about 2,000 (36%) were called active. About 18% were inconclusive and are not listed. Some of the results follow.
Output y for records whose normalized growth is lower than 1, n for records at or above 1.

[Q] Just wondering, is normalized growth of "COc1cc2c(c(OC)c1OC)-c1ccc(O)c(=O)cc1[C@@H](NC(C)=O)CC2" below 1?
[A] y

[Q] Does "O=[N+]([O-])/C=C/c1ccsc1" have normalized growth strictly under 1?
[A] y

[Q] A record lists "Cc1oc(S(=O)(=O)N(C)C)cc1C(=O)O" . Is its normalized growth below 1?
[A] n
